# Tgt: DNA repair nuclease/redox regulator APEX1 (Homo sapiens) (UniProt P27695)
# Sequence (P27695 whole entry, looked up): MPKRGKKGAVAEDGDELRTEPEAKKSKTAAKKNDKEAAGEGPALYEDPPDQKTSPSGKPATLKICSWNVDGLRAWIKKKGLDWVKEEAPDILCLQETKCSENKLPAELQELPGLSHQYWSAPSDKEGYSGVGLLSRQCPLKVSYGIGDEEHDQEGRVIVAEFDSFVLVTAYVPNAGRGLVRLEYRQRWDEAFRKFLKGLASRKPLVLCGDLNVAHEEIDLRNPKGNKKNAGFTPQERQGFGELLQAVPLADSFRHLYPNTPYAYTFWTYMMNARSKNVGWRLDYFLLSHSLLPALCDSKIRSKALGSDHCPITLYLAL
# Test summary: qHTS Assay for Inhibitors of the Human Apurinic/apyrimidinic Endonuclease 1 (APE1);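 note: plate controls were vehicle for no effect and reference inhibitor for full effect; nearly all actives have a fitted effect of over 55% in size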
# Experimental context: recombinant APE1, TAMRA/BHQ-2 abasic DNA cleavage fluorescence; at 65.8 µM (top of the series) unless noted
About 1,200 (0.34%) of roughly 350,000 compounds were called active. Not shown: some 3% with an inconclusive outcome. This is one part of a sample in which actives are shown more often than they occur.
Result type: activity change, negative = inhibition

stdin: State the recorded activity change, negative = inhibition for this entry: CC(=O)OCC1OC(C#Cc2ccccc2Cl)C=CC1OC(C)=O (centres undefined)
stdout: -9.65% [at 12.4 µM] (inactive)

stdin: Item CC(C)[C@@H](OCc1ccccc1)[C@H](C)/C=N\OC[C@@H](C)[C@H](OCc1ccccc1)C(C)C has what recorded activity change, negative = inhibition?
stdout: -2.11% [at 12.4 µM] (inactive)

stdin: So what's the measured activity change, negative = inhibition for this one? COC(=O)CC1c2ccccc2C(Cc2ccc(OC)cc2)=C(C)N1C(=O)OC (centres undefined)
stdout: -8.37% [at 12.4 µM] (inactive)

stdin: Name the recorded activity change, negative = inhibition for CC(C)(C)c1ccc(OC2C=CC(C#Cc3ccccc3)OC2CO)cc1 (centres undefined) .
stdout: 3.5% [at 12.4 µM] (inactive)

###

# Tgt: DNA repair nuclease/redox regulator APEX1 (Homo sapiens)
# Test summary: qHTS Assay for Inhibitors of the Human Apurinic/apyrimidinic Endonuclease 1 (APE1);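 note: plate controls were vehicle for no effect and reference inhibitor for full effect; nearly all actives have a fitted effect of over 55% in size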
# Experimental context: recombinant APE1, TAMRA/BHQ-2 abasic DNA cleavage fluorescence
Out of some 350,000 compounds screened, about 1,200 (0.34%) were called active. Roughly 3% stayed inconclusive and do not appear here. The entries come from a sample that favours actives as a whole.
Result type: Potency

C/C=C/C1=C(C(=O)O)N2C(=O)[C@@H](NC(=O)[C@H](N)c3ccc(O)cc3)[C@H]2SC1 : inactive
COC(=O)C1(C)C=CCN1C(=O)c1ccccc1 (stereo not drawn) : inactive
CC(C)(C)OC(=O)C1=C(CO)CS[C@@H]2[C@H](NC(=O)Cc3ccccc3)C(=O)N12 : inactive
CC(N)(C(=O)O)c1ccc(-c2nn[nH]n2)cc1 (stereo not drawn) : inactive

stdin: Recorded Potency of CC(C)C[C@@H](CC(=O)N[C@@H](CCC(=O)O)CC(=O)O)NC(=O)[C@@H]1CCCC[C@H]1NC(=O)C[C@@H](NC(=O)C[C@H](Cc1c[nH]c2ccccc12)NC(=O)[C@@H]1CCCC[C@H]1N)C(C)C , please.
stdout: inactive

stdin: For the compound shown here, OC[C@H]1O[C@@H](n2cnc3c(NC4CCCC4)ncnc32)[C@H](O)[C@H]1O , give the reported Potency.
stdout: inactive

stdin: What Potency value was documented for this compound, OCCC(O)CO (stereo not drawn) ?
stdout: inactive

stdin: Quick one: Potency for CCCCc1nn(-c2ccccc2C(F)(F)F)c(=O)n1Cc1ccc(-c2ccccc2S(=O)(=O)NC(=O)c2sccc2C)cc1 ?
stdout: inactive

stdin: # Potency lookup, item C[C@@H]1O[C@@H](OC[C@H]2O[C@@H](Oc3cc(O)c4c(c3)O[C@H](c3ccc(O)c(O)c3)CC4=O)[C@H](O)[C@@H](O)[C@@H]2O)[C@H](O)[C@H](O)[C@H]1O
stdout: inactive

From: PubChem BioAssay AID2517
